Entries and their Absolute DNA transfection efficiency in HEK293 cells
- System: HEK293 cells
- experiment_notes: Preliminary screening as DNA vectors, GFP transfection of HEK293 cells
- Assay type: cell-based
- experimental_setup: amino lipid/DOPE liposome with 75 ng plasmid DNA (psin-EGFP-IRES-Puro); number of GFP-expressing cells divided by total nuclei (Hoechst)
measured_quantity: Absolute DNA transfection efficiency in HEK293 cells (%)

1. CCCCCCCCCCCCN(CCCCCCCCCCCC)c1nc(NCCCN2CCOCC2)nc(SCCCCCCCCCC)n1 [S10^2N12 D8]; 0.0
2. CCCCCCCNc1nc(NCCCN2CCN(C)CC2)nc(SCCCCCCC)n1 [S7N7 D9]; 10.9
3. CCCCCCCCCCCCCCCCCCNc1nc(NCCN(CC)CC)nc(SCCCCCCC)n1 [S7N18 D7]; 3.9
4. CCCCCCCCCSc1nc(NCCCCCCCC)nc(NCCCN2CCOCC2)n1 [S9N8 D8]; 12.2
5. CCCCCCCCSc1nc(NCCN2CCOCC2)nc(SCCCCCCCC)n1 [S8S8 D2]; 17.6

---

- System: HEK293 cells
- experiment_notes: Preliminary screening as mRNA vectors, EGFP mRNA transfection of HEK293 cells
- Type: cell-based
- experimental_setup: EGFP mRNA 50 ng per well, 96-well plates; percentage of GFP fluorescent cells relative to total number of cells (Hoechst)
- Procedure: Cell line: HEK293 cells (ATCC CRL-1573™) Medium: DMEM supplemented with 10% fetal bovine serum (Invitrogen) Screening: cell transfection on 96-well plates Detection (readout): percentage of the number of GFP fluorescent cells relative to the total number of cells (the total number of cells was determined using nucleus dye Hoechst). Lipofectamine2000 (Invitrogen) was used as the positive control. […]
measured_quantity: Absolute mRNA transfection efficiency in HEK293 cells (%)

1) CCCCCCSc1nc(NCCN2CCCCC2)nc(SCCCCCC)n1 [Compound D4S6S6]; 0.9
2) CCCCCCCCCCCCCCCCCCNc1nc(NCCCN2CCOCC2)nc(SCCCCCCCCC)n1 [Compound D8S9N18]; 1.9
3) CCCCCCCCCCCCCCCNc1nc(NCCCN2CCOCC2)nc(SCCCCCCCCCCC)n1 [Compound D8S11N15]; 0.5
4) CCCCCCCCCCCCCNc1nc(NCCN2CCCCC2)nc(SCCCCCC)n1 [Compound D4S6N13]; 2.1
5) CCCCCCCCCCCCCCCCSc1nc(NCCCCCCCCC)nc(NCCCN2CCOCC2)n1 [Compound D8S16N9]; 2.1

---

Entries and their Absolute DNA transfection efficiency in HEK293 cells
- System: HEK293 cells
- experiment_notes: Preliminary screening as DNA vectors, GFP transfection of HEK293 cells
- Assay type: cell-based
- experimental_setup: amino lipid/DOPE liposome with 75 ng plasmid DNA (psin-EGFP-IRES-Puro); number of GFP-expressing cells divided by total nuclei (Hoechst)
measured_quantity: Absolute DNA transfection efficiency in HEK293 cells (%)

1) CCCCCCCCCCCCCCCCCCNc1nc(NCCCN2CCOCC2)nc(SCCCCCCCCCCCCCCCCCC)n1; 0.0
2) CCCCCCCCCCCCCCCCSc1nc(NCCCCCCCCCCCCCCC)nc(NCC2CCN(C)CC2)n1; 0.2
3) CCCCCCCCCCCCN(CCCCCCCCCCCC)c1nc(NCCCN2CCN(C)CC2)nc(SCCCCCC)n1; 0.4
4) CCCCCCCCCCCCCNc1nc(NCCN(C)C)nc(SCCCCCC)n1 [S6N13 D1]; 6.5

---

- Test system: HEK293 cells
- experiment_notes: Preliminary screening as mRNA vectors, EGFP mRNA transfection of HEK293 cells
- Format: cell-based
- experimental_setup: HEK293 cells, 96-well plates, EGFP mRNA 50 ng per well; percentage of GFP fluorescent cells relative to total number of cells (Hoechst)
measured_quantity: Absolute mRNA transfection efficiency in HEK293 cells (%)

1) CCCCCCCCCCCCCCCNc1nc(NCCCCCCCC)nc(NCCCN2CCOCC2)n1; 0.3
2) CCCCCCCCCCCSc1nc(NCCN2CCOCC2)nc(SCCCCCCCCCCC)n1; 0.0
3) CCCCCCCCCCCCCCCNc1nc(NCCCCCCCC)nc(NCCN2CCCCC2)n1; 0.0
4) CCCCCCCCCCCCCNc1nc(NCCCCCCC)nc(NCCCN2CCOCC2)n1; 0.1
5) CCCCCCCCCCCNc1nc(NCCCCCC)nc(NCCN2CCCC2)n1; 0.9
6) CCCCCCCCCCCCN(CCCCCCCCCCCC)c1nc(NCCCCCCCCC)nc(NCCCN2CCOCC2)n1; 0.3
7) CCCCCCCCCCCCN(CCCCCCCCCCCC)c1nc(NCCCCCCC)nc(NCCN2CCCC2)n1; 6.8
8) CCCCCCCCCCCCCCCCNc1nc(NCCCCCCC)nc(NCCCN2CCN(C)CC2)n1; 0.0
9) CCCCCCCNc1nc(NCCCCCCC)nc(NCCCN2CCOCC2)n1; 0.0
10) CCCCCCCCCCCCCCSc1nc(NCCN2CCCC2)nc(SCCCCCCCCC)n1; 2.3
11) CCCCCCCCCCCCCNc1nc(NCCN2CCCC2)nc(N(CCCCCCCCCCCC)CCCCCCCCCCCC)n1; 7.3
12) CCCCCCCCCCCCNc1nc(NCCCCCC)nc(NCCCN2CCOCC2)n1; 0.1
13) CCCCCCCCCCCCCCCCCCSc1nc(NCCN(CC)CC)nc(SCCCCCCCCCCCCCCC)n1; 9.3

---

- Test system: HEK293 cells
- experiment_notes: Preliminary screening as DNA vectors, GFP transfection of HEK293 cells
- Assay type: cell-based
- experimental_setup: amino lipid/DOPE liposome with 75 ng plasmid DNA (psin-EGFP-IRES-Puro); number of GFP-expressing cells divided by total nuclei (Hoechst)
measured_quantity: Absolute DNA transfection efficiency in HEK293 cells (%)

1) CCCCCCCCCCCCCNc1nc(NCCCN2CCOCC2)nc(SCCCCCCCCCCCC)n1 [S12N13 D8]; 0.0
2) CCCCCCCCCNc1nc(NCCCN(C)C)nc(SCCCCCCC)n1 [S7N9 D6]; 25.9
3) CCCCCCCCCCCCCCCSc1nc(NCCCCCCC)nc(NCCN2CCN(C)CC2)n1 [S15N7 D5]; 12.9
4) CCCCCCCCCCCCSc1nc(NCCCN2CCOCC2)nc(SCCCCCC)n1 [S6S12 D8]; 7.5

---

Entries and their Absolute DNA transfection efficiency in HEK293 cells
- Test system: HEK293 cells
- experiment_notes: Preliminary screening as DNA vectors, GFP transfection of HEK293 cells
- Format: cell-based
- experimental_setup: HEK293 cells; lipid/DOPE liposome with 75 ng plasmid DNA (psin-EGFP-IRES-Puro); number of cells expressing GFP divided by total number of nuclei (Hoechst)
measured_quantity: Absolute DNA transfection efficiency in HEK293 cells (%)

1. CCCCCCCCCNc1nc(NCCCCCCCCC)nc(NCCCN2CCOCC2)n1; 0.0
2. CCCCCCCCCCSc1nc(NCCN(CC)CC)nc(SCCCCCCCCC)n1; 8.3
3. CCCCCCCCCCCCCCCCNc1nc(NCCCCCCCCCCCCC)nc(NCCCN2CCOCC2)n1; 0.0
4. CCCCCCCCCCCCCNc1nc(NCCCCCCCCCCCC)nc(NCCN2CCCC2)n1; 1.7
5. CCCCCCCCCCCCSc1nc(NCCCN(C)C)nc(SCCCCCCCCCCCC)n1; 3.9
6. CCCCCCCCCCCCCCCCCCNc1nc(NCCN2CCCCC2)nc(N(CCCCCCCCCCCC)CCCCCCCCCCCC)n1; 0.9
7. CCCCCCCCCCCCCCCNc1nc(NCCCCCCCCCCCCC)nc(NCCN2CCN(C)CC2)n1; 0.2
8. CCCCCCCCCCCCCCCCNc1nc(NCCCCCC)nc(NCCN(C)C)n1; 0.4
9. CCCCCCCCCCCCCCCCCCSc1nc(NCCN2CCOCC2)nc(SCCCCCCCC)n1; 0.9
10. CCCCCCNc1nc(NCCCCCC)nc(NCCN(C)C)n1; 0.0

---

- System: MCF7 cells
- experiment_notes: Transfection of MCF7 cell line, DNA vectors
- Format: cell-based
- Design: concentration or dose not given beside the values
- experimental_setup: plasmid DNA, GFP cells / total cells
Binary call on Absolute DNA transfection efficiency in MCF7 cells with cut-off 20%: strictly below means T, and equality or higher means F.

1) CCCCCCCCCCCCCCCCSc1nc(NCCCN2CCN(C)CC2)nc(SCCCCCCCCC)n1; F
2) CCCCCCCCCCCSc1nc(NCCCCCCCCC)nc(NCCCN2CCN(C)CC2)n1; F
3) CCCCCCCCCCCCSc1nc(NCCCN2CCN(C)CC2)nc(SCCCCCCCCC)n1; F
4) CCCCCCCCCCCCSc1nc(NCCCN2CCN(C)CC2)nc(SCCCCCCCC)n1; T
5) CCCCCCCCCCCCSc1nc(NCC2CCN(C)CC2)nc(SCCCCCCCC)n1; F
